system: IGROV1 ovarian; assay: NCI tumour cell line growth inhibition, 48 h
Each entry below lists one item and its recorded TGI value.

{"compound": "Cc1nc2nnnn2c2c1C(=O)Nc1ccccc1N2", "TGI": "> 100 µM"}

Q. Recall the recorded TGI for COc1ccc(NCC#N)cc1 with IGROV1 ovarian and state it.
A. > 100 µM

Q. Param item: COc1ccc(-c2cc3c(OC)c(OC)c(OC)cc3oc2=O)cc1
A. > 100 µM

Q. Next up: CN(N=O)C(=O)N(N)CCCCC(NC(=O)OCc1ccccc1)C(=O)OCc1ccccc1 (stereo not drawn)
A. > 100 µM

###

test system: M14 melanoma; assay: NCI tumour cell line growth inhibition, 48 h
readout.label: TGI

# annotated cases, reported TGI shown
{"compound": "CN=C(NC#N)N(Cc1ccccc1)Cc1ccccc1", "TGI": "> 100 µM"}
{"compound": "Nc1nc2cc(-c3ccc4ncc(C(=O)N5CCOCC5)n4c3)ccc2o1", "TGI": "> 100 µM"}
{"compound": "CCN(CC)c1ncnc2c1ncn2CCNC(CO)(CO)CO", "TGI": "> 100 µM"}

Q. Form field: reported TGI of CCC#CCCCCCCCCC(F)C(=O)O (centres undefined)
A. > 100 µM

###

Here the recorded TGI is given for each entry.
tested on: IGROV1 ovarian; experiment: NCI tumour cell line growth inhibition, 48 h

{"compound": "Cn1cc(C2=C(c3cn(C)c4cc(C(=O)O)ccc34)C(=O)NC2=O)c2ccccc21", "TGI": "> 25 µM"}
{"compound": "CC1=C(C#N)C2C(=C(C)N1)C(N)=Nc1ccccc12 (centres undefined)", "TGI": "95.6 µM"}
{"compound": "COc1ccc(N2C(=O)C3c4[nH]c5ccc(OC)cc5c4C4CCC(C(C)C)CC4C3C2=O)cc1 (centres undefined)", "TGI": "> 100 µM"}
{"compound": "Nc1nc2cc(-c3ccc4ncc(C(=O)N5CCOCC5)n4c3)ccc2o1", "TGI": "6.6 µM"}

Q. Query: TGI; subject: Cc1ccc(NC(=S)C#N)cc1Cl
A. 48.4 µM

Q. Continue with O=CCOCc1cc2c(cc1Br)OCO2
A. > 100 µM

Q. Now consider Cc1ccc(-c2c(C#N)c(N)[nH]c(=S)c2C#N)cc1 .
A. > 100 µM

Q. // repeat for CC(C)(C)C1=NC(=S)SC2=NC(=O)C3(NN21)c1ccccc1-c1ccccc13 and report
A. > 10 µM

Q. Thanks! And Cc1c(C(=O)C(=O)c2ccccc2)c(C)c(C(=O)C(=O)c2ccccc2)c(C)c1C(=O)C(=O)c1ccccc1 ?
A. > 100 µM
